molecular target: T1, rabbit TF-His (rabbit (Oryctolagus cuniculus), UniProt P24055 33-250); assay: SPR (Biacore), antibody captured by anti-human IgG on CM5 chip, rabbit TF-His in solution, 1:1 model
T1 construct: also called rabbit TF ECD-His
T1 sequence (P24055 other isoform, or with tags, fused parts or gaps): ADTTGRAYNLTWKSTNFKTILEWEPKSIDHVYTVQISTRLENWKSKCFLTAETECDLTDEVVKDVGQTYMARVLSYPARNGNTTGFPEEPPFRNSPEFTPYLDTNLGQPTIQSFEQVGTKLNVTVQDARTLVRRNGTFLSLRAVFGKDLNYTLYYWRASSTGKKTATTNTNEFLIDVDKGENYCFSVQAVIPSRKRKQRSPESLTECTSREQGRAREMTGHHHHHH
pKd: −log10 of the molar value.
Reported endpoint: pKd

25G1 (antibody, human IgG1, kappa, V domains shown, Human IgG1; also called antibody 25G1) VH: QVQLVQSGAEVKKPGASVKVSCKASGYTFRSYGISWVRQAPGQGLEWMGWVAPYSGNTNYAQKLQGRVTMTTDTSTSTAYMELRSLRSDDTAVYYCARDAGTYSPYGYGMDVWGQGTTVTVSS VL: DIQMTQSPSTLSASVGDRVTITCRASHSIDSWLAWYQQKPGKAPKLLIYKASYLESGVPSRFSGSGSGTEFTLTISSLQPDDFATYYCQLFQSLPPFTFGGGTKVEIKR    8.44
